assay-target: CD3 (antibody antigen coated on the ELISA plate in Examples 1 to 3) (Homo sapiens (Human)) (UniProt P07766)
Sequence (P07766 23-126 limits assumed): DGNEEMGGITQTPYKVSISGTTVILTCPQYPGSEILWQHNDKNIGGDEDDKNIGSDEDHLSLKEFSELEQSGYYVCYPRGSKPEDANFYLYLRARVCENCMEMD
assay-procedure: binding activity of the conjugated mutant compared with the wild-type antibody (ELISA as in Example 1)
readout-name: Blocking fold after conjugation (+20K)

{"binder": "anti-CD3 antibody mutant VL-Y34C conjugated with Molecule I (+20K) (antibody, V domains shown, Molecule I (+20K, shown only as a drawing) conjugated on Cys 34) VH: EVQLVESGGGLVQPGGSLRLSCAASGFTFSTYAMNWVRQAPGKGLEWVGRIRSKYNNYATYYADSVKDRFTISRDDSKNSLYLQMNSLKTEDTAVYYCARHGNFGNSYVSWFAYWGQGTLVTVSS VL: QTVVTQEPSLTVSPGGTVTLTCRSSTGAVTTSNCANWVQQKPGQAPRGLIGGTNKRAPGVPARFSGSLLGDKAALTLLGAQPEDEAEYFCALWYSNLWVFGGGTKLTVL", "result": "8 fold"}
{"binder": "anti-CD3 antibody mutant VL-N54C conjugated with Molecule I (+20K) (antibody, V domains shown, Molecule I (+20K, shown only as a drawing) conjugated on Cys 54) VH: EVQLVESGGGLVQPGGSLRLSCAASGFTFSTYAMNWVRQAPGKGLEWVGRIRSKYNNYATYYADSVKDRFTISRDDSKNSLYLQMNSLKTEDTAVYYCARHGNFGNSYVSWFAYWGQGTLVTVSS VL: QTVVTQEPSLTVSPGGTVTLTCRSSTGAVTTSNYANWVQQKPGQAPRGLIGGTCKRAPGVPARFSGSLLGDKAALTLLGAQPEDEAEYFCALWYSNLWVFGGGTKLTVL", "result": "12 fold"}
{"binder": "anti-CD3 antibody mutant VH-M34C conjugated with Molecule I (+20K) (antibody, V domains shown, Molecule I (+20K, shown only as a drawing) conjugated on Cys 34) VH: EVQLVESGGGLVQPGGSLRLSCAASGFTFSTYACNWVRQAPGKGLEWVGRIRSKYNNYATYYADSVKDRFTISRDDSKNSLYLQMNSLKTEDTAVYYCARHGNFGNSYVSWFAYWGQGTLVTVSS VL: QTVVTQEPSLTVSPGGTVTLTCRSSTGAVTTSNYANWVQQKPGQAPRGLIGGTNKRAPGVPARFSGSLLGDKAALTLLGAQPEDEAEYFCALWYSNLWVFGGGTKLTVL", "result": "5 fold"}

Where do the numbers come from? From patent EP4578875A1.
